Data provenance: paper PMC11833175

Catalogue of molecules with associated Ki
molecular target: human carbonic anhydrase CA II (Homo sapiens, UniProt P00918); experiment: hCA inhibition, stopped-flow CO2 hydration method, CA II; details: read-out: Ki for targeted CAs, II; mean from three assays, errors ±5–10%

# smi, Ki
records = [
    ("Cc1ccccc1NC(=O)COc1nn(CC(=O)Nc2ccccc2C)c2c1N(C)S(=O)(=O)c1ccccc1-2", "> 100 µM"),
    ("CN1c2c(OCC(=O)Nc3ccc([N+](=O)[O-])cc3)nn(CC(=O)Nc3ccc([N+](=O)[O-])cc3)c2-c2ccccc2S1(=O)=O", "> 100 µM"),
    ("CN1c2c(O)nn(CC(=O)Nc3ccc(Cl)cc3)c2-c2ccccc2S1(=O)=O", "84.6 µM"),
    ("CN1c2c(O)nn(CC(=O)NCc3ccccc3)c2-c2ccccc2S1(=O)=O", "90.3 µM"),
]

What does the record list as Ki for Cc1ccc(NC(=O)COc2nn(CC(=O)Nc3ccc(C)cc3)c3c2N(C)S(=O)(=O)c2ccccc2-3)cc1 ? > 100 µM

What does the record list as Ki for CN1c2c(OCC(=O)NC3CCCCC3)nn(CC(=O)NC3CCCCC3)c2-c2ccccc2S1(=O)=O ? > 100 µM
